measurement target: UniProt:Q9Y5Y6
Sequence (Q9Y5Y6 whole entry, the tested form may be a part): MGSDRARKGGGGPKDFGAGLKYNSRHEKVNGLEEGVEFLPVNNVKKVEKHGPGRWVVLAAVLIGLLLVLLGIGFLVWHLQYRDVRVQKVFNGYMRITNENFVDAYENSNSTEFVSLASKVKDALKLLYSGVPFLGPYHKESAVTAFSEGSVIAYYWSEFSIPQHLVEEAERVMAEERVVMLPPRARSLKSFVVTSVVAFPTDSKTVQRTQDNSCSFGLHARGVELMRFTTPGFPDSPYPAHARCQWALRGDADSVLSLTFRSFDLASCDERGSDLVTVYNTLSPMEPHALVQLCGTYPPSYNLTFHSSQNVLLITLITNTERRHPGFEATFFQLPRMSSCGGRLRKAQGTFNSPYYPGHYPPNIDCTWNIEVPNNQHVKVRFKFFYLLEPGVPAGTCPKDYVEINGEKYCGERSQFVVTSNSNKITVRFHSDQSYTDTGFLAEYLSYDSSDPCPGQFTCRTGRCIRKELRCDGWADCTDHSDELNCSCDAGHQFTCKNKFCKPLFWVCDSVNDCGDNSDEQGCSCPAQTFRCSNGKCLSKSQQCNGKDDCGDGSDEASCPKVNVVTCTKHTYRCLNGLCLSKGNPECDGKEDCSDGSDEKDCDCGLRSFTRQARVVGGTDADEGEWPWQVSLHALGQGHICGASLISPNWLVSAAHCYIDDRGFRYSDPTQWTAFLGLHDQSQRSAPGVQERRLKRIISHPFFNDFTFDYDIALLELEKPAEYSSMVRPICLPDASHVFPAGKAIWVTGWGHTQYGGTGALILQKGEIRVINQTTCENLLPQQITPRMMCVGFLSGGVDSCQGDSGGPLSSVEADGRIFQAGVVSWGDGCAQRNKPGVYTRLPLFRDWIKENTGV
assay summary: Inhibition of recombinant human N-terminal His6-tagged matriptase catalytic domain expressed in Escherichia coli preincubated for 30 mins followed by Boc-QAR-AMC substrate addition and measured for 1 hr by fluorescence assay
experimental setup: read-out: Ki(app)
pKi: −log10 of the molar value.
Answer N if pKi is under 8, and Y if it is 8 or more.

N=C(N)NCCC[C@H](NC(=O)[C@H](CC(=O)O)NC(=O)OCC1c2ccccc2-c2ccccc21)C(=O)c1nc2ccccc2s1: N
N=C(N)NCCC[C@H](NC(=O)[C@H](CCCCN)NC(=O)OCC1c2ccccc2-c2ccccc21)C(=O)c1nc2ccccc2s1: Y
CC(=O)N[C@@H](CO)C(=O)N[C@@H](CCCCN)C(=O)N[C@@H](CC(C)C)C(=O)N[C@@H](CCCNC(=N)N)C(=O)c1nc2ccccc2s1: Y
CC(C)C[C@H](NC(=O)OCC1c2ccccc2-c2ccccc21)C(=O)N[C@@H](CCCNC(=N)N)C(=O)c1nc2ccccc2s1: N
C[C@@H](O)[C@H](NC(=O)OCC1c2ccccc2-c2ccccc21)C(=O)N[C@@H](CCCNC(=N)N)C(=O)c1nc2ccccc2s1: N

Q) For this molecule, is measured pKi 8 or higher? "N=C(N)NCCC[C@H](NC(=O)[C@@H]1CCCN1C(=O)OCC1c2ccccc2-c2ccccc21)C(=O)c1nc2ccccc2s1"
A) Y

Q) For this molecule, is measured pKi 8 or higher? "CSCC[C@H](NC(=O)OCC1c2ccccc2-c2ccccc21)C(=O)N[C@@H](CCCNC(=N)N)C(=O)c1nc2ccccc2s1"
A) Y

Q) For this molecule, is measured pKi 8 or higher? "N=C(N)NCCC[C@H](NC(=O)OCC1c2ccccc2-c2ccccc21)C(=O)N[C@@H](CCCNC(=N)N)C(=O)c1nc2ccccc2s1"
A) Y

Q) For this molecule, is measured pKi 8 or higher? "N=C(N)NCCC[C@H](NC(=O)[C@H](Cc1ccccc1)NC(=O)OCC1c2ccccc2-c2ccccc21)C(=O)c1nc2ccccc2s1"
A) N

Q) For this molecule, is measured pKi 8 or higher? "CC(C)[C@H](NC(=O)OCC1c2ccccc2-c2ccccc21)C(=O)N[C@@H](CCCNC(=N)N)C(=O)c1nc2ccccc2s1"
A) N

Q) For this molecule, is measured pKi 8 or higher? "CC[C@H](C)[C@H](NC(=O)OCC1c2ccccc2-c2ccccc21)C(=O)N[C@@H](CCCNC(=N)N)C(=O)c1nc2ccccc2s1"
A) N

====

measurement target: Serine protease hepsin (Homo sapiens)
assay summary: Inhibition of recombinant human C-terminal His10-tagged hepsin catalytic domain preincubated for 30 mins followed by Boc-QAR-AMC substrate addition and measured for 1 hr by fluorescence assay
experimental setup: read-out: Ki(app)
measurement kind: pKi
Remember the convention: pKi equals -log10 of concentration in molar.

Q) Form field: reported pKi of "N=C(N)NCCC[C@H](NC(=O)[C@H](CCCCN)NC(=O)OCC1c2ccccc2-c2ccccc21)C(=O)c1nc2ccccc2s1"
A) 6.98

Q) Form field: reported pKi of "CC(C)[C@H](NC(=O)OCC1c2ccccc2-c2ccccc21)C(=O)N[C@@H](CCCNC(=N)N)C(=O)c1nc2ccccc2s1"
A) 6.90

Q) Form field: reported pKi of "N=C(N)NCCC[C@H](NC(=O)[C@H](Cc1c[nH]c2ccccc12)NC(=O)OCC1c2ccccc2-c2ccccc21)C(=O)c1nc2ccccc2s1"
A) 6.52
